System: COLO 205 colon
Assay: NCI-60 one-dose screen, 48 h (100 = growth as untreated, 0 = no growth, -100 = all killed)
Conditions: 10 µM unless noted
Description: Cells are grown in 96 well plates and exposed to the test compound for 48 hours. Compounds are tested at a single concentration, which is 10^-5 M for most compounds. The reported endpoint is percent growth (GI% or GIPRCNT), where numbers from 0 - 100% represent growth inhibition, and numbers from -100% - 0 represent cell death. For example, a value of 40 represents 60% growth inhibition. A value of 0 means no net growth occurred over the course of the experiment. […]
Compounds without any hit were thinned out: in the full panel of roughly 83,000, 20% have a hit.
assay metric: growth (%)

* CCN(CC)CCOc1ccc(C(=C(C)c2ccc(OC)cc2)c2ccc(OCCN(CC)CC)cc2)cc1 | -56.5
* CCN(CC)CCOc1ccc(C(=C(c2ccccc2)C2CCCC2)c2ccc(OCCN(CC)CC)cc2)cc1 | -83.9
* CC(=C(c1ccc(OCCN2CCCC2)cc1)c1ccc(OCCN2CCCC2)cc1)c1ccc(Cl)cc1 | -74.4
* N#C/C(=C\c1cccc2c1OCO2)C(=O)Nc1sc2c(c1C#N)CCCC2 | 119
* OCC(Nc1ncnc2ccc(-c3cnc4cnccn34)cc12)c1ccccc1 (stereo not given) | 98.2
* O=C(/C=C/c1csc(Br)n1)NO | 11.6
* CN1CCN(c2ccc(Nc3nc(NCCNS(=O)(=O)c4ccc5ccccc5c4)c4sccc4n3)cc2)CC1 | 13.3
* Cc1ccc(CSC2=C(Cl)CN(c3ccc(Cl)cc3)C2=O)cc1 | 129
* C/C(=C(\c1ccc(O)cc1)c1ccc(OCCN2CCCCCC2)cc1)c1ccc(Cl)cc1 | -63.4
* CCN(CC)S(=O)(=O)c1ccc(-c2nc(C(Cl)Cl)nc3cc(C)nn23)cc1 | -18.7
* CCN(CC)c1ccc(/C=N/NC(=O)c2ccc(S(N)(=O)=O)cc2)c(O)c1 | 14.3
* COC(=O)N1CCN(CCNCc2ccc(NC(=O)c3ccc(C)c(C#Cc4cnc5cccnn45)c3)cc2C(F)(F)F)CC1 | 2.48
* C/C(=N\NC(N)=S)c1nnn(-c2ccc([N+](=O)[O-])cc2)c1C | 103
* O=C(O)c1ccc(-n2c(=O)n(-c3cccc(C(F)(F)F)c3)c(=O)c3cc(-c4ccc(F)cc4F)ccc32)cc1 | 65.1
* COc1cc(-c2nc(-c3ccccc3)[nH]c2-c2ccnc(NCCCNS(=O)(=O)c3ccc(C)cc3)n2)ccc1F | 96

###

System: SK-MEL-5 melanoma
Assay: NCI-60 one-dose screen, 48 h
Settings: 10 µM unless noted
Procedure: Growth inhibition of the SK-MEL-5 human tumor cell line is measured as a screen for anti-cancer activity. Cells are grown in 96 well plates and exposed to the test compound for 48 hours. Compounds are tested at a single concentration, which is 10^-5 M for most compounds. The reported endpoint is percent growth (GI% or GIPRCNT), where numbers from 0 - 100% represent growth inhibition, and numbers from -100% - 0 represent cell death. For example, a value of 40 represents 60% growth inhibition. […]
The panel holds about 83,000 compounds, 20% with a hit somewhere; the sample as a whole holds those more often. Active and inactive are the calls of the source. Rule for the calls: active = growth percent below 10; inactive = the rest.
Possible outcomes: true (1) = active, false (0) = inactive

• COc1ccc(C2CC(c3cccc(OCCCCOc4cccc(C5=NOC(c6ccc(OC)cc6)C5)c4)c3)=NO2)cc1 (stereo unspecified) = false (0)
• CC[C@H](CC[C@@H](C)[C@H]1CC[C@H]2[C@@H]3CC(=O)C4=CC(=O)/C(=C/c5ccc([N+](=O)[O-])cc5)C[C@]4(C)[C@H]3CC[C@]12C)C(C)C = false (0)
• O=C1/C(=C/C=C/c2ccco2)SC(=S)N1Cc1ccccc1 = false (0)
• CC1=Cc2ccccc2OC12C=Cc1ccccc1O2 (stereo unspecified) = false (0)
• O=C(CCCCCCN1CC(=O)N2[C@@H](c3ccc(Cl)s3)c3[nH]c4ccccc4c3C[C@H]2C1=O)NO = false (0)
• CCNC(=O)Oc1ccc(/C(=C(/C)c2ccc(OC)cc2)c2ccc(OCCN3CCCCCC3)cc2)cc1 = false (0)
• O=C(Nc1ccc(Cl)c(C(F)(F)F)c1)Nc1ccc2c(ccn2C(=O)c2cccc(F)c2)c1 = false (0)
• Cn1c2nc3ccccc3c-2cc2ccccc21 = false (0)
• O=C(CSc1nc2ccccc2c(=O)n1-c1ccccc1)N/N=C/c1ccc(Oc2ccc(Br)cc2)cc1 = false (0)
• COc1ccc2c(c1)c(-c1nnc(N)nc1-c1c[nH]c3ccc(F)cc13)cn2C = false (0)
• CC(Nc1c(C#N)cnc2ccc(-c3cncc(-c4n[nH]c(=O)o4)c3)cc12)c1ccccc1 (stereo unspecified) = true (1)
